TGI values for the compounds below.
test system: OVCAR-4 ovarian; assay: NCI tumour cell line growth inhibition, 48 h
// return numeric value only (unit: µM, not printed)

What the record says about `O=C(OCCOCCOC(=O)c1c[nH]cc1-c1ccccc1)c1c[nH]cc1-c1ccccc1` : TGI is 49.7

Please find the next compound below.
What the record says about CC(C)(C)[Si](C)(C)OCC1OC(n2ccc(=O)[nH]c2=O)C(O[Si](C)(C)C(C)(C)C)/C1=N/O (stereo not given) : TGI is 17.8

* * *

test system: OVCAR-3 ovarian; test: NCI tumour cell line growth inhibition, 48 h
TGI values for the compounds below.

What the record says about `COc1ccc2c(c1)CCC(CN1CCN(CCOC(c3ccc(F)cc3)c3ccc(F)cc3)CC1)=C2` : TGI is 50.6 µM

Continuing:
What the record says about CC(CN(CP(=O)([O-])[O-])CP(=O)([O-])[O-])N(CP(=O)([O-])[O-])CP(=O)([O-])[O-].N[C@@H]1CCCC[C@@H]1N.[Pt+2] (centres undefined) : TGI is > 100 µM

What the record says about `Cc1[nH]n(C(=O)c2ccccc2O)c(=O)c1/C=C1\C(=O)C=Cc2ccccc21` : TGI is 1.2 µM

What the record says about `CCOC(=O)C1(C(=O)OCC)C[C@H]2CON=C2[C@@H]1c1ccc(C(F)(F)F)cc1` : TGI is > 100 µM

What the record says about C[Si](C)(C)/C(Br)=C\CCN1C(=O)CCC1O (centres undefined) : TGI is > 100 µM

What the record says about `CCCCN(CCCC)CC(=O)c1ccc2cc(Cl)c3ccccc3c2c1` : TGI is > 100 µM

What the record says about CC1=C(C(=O)Nc2ccc(F)c(Cl)c2)C(c2cccc(Cl)c2)NC(=O)N1 (centres undefined) : TGI is 56.2 µM

What the record says about `O=c1[nH]c2ccc(CC(=S)N3CCN(c4ccccc4)CC3)cc2s1` : TGI is > 100 µM

What the record says about `NC(=O)c1cc2ccccc2c(N=Nc2ccccc2)c1O` : TGI is > 100 µM
